Origin of values: patent US8912189B2

METRIC: melting point (°C)

| MOLECULE | METRIC | NUMERIC VALUE |
| --- | --- | --- |
| CCNC(=O)Nc1ccc2ncc(-c3cnn(CCCc4ccccc4)c3)nc2n1 [Compound 9] | melting point | 251 |
| CCNC(=S)Nc1ccc2ncc(-c3cnn(Cc4cccc(N(C)C)c4)c3)nc2n1 [Compound 37] | melting point | 215 |
| COCCNC(=S)Nc1ccc2ncc(-c3cnn(Cc4ccccc4)c3)nc2n1 [Compound 31] | melting point | 219 |

###

METRIC: melting point

Check out these entries, answers already filled in.
| CHEM SMILES | RESULT |
| --- | --- |
| CCNC(=O)Nc1ccc2ncc(-c3cnn(Cc4ccc(Cl)cc4)c3)nc2n1 | 240 to 244 °C |
| CCNC(=S)Nc1ccc2ncc(-c3cnn(Cc4cccc(OC)c4F)c3)nc2n1 | 215 to 220 °C |
| CCNC(=O)Nc1ccc2ncc(-c3cnn(Cc4ccc(F)c(Cl)c4)c3)nc2n1 | 214 to 219 °C |
| CCNC(=S)Nc1ccc2ncc(-c3cnn(CCCc4ccccc4)c3)nc2n1 | 206 to 208 °C |
| CCNC(=S)Nc1ccc2ncc(-c3cnn(Cc4ccc(F)c(Cl)c4)c3)nc2n1 | 235 to 238 °C |
| CCNC(=O)Nc1ccc2ncc(-c3cnn(Cc4ccc(C)cc4)c3)nc2n1 | 217 to 220 °C |

Output measured melting point for this item: CCNC(=S)Nc1ccc2ncc(-c3cnn(Cc4ccccc4C)c3)nc2n1 252 to 255 °C

For the compound CCNC(=O)Nc1ccc2ncc(-c3csc(C(=O)O)c3)nc2n1 , give its reported melting point. 250 °C (dec.)

Note down melting point recorded for CCNC(=O)Nc1ccc2ncc(-c3cnn(Cc4cccc(C)c4)c3)nc2n1 208 to 210 °C

###

Some molecules, each annotated with its measured melting point.

Consider the worked cases shown below.
| CHEM SMILES | RESULT |
| --- | --- |
| CCNC(=S)Nc1ccc2ncc(-c3cnn(CCc4ccccc4)c3)nc2n1 | 231 to 233 °C |
| CCNC(=O)Nc1ccc2ncc(-c3cnn(Cc4ccc(C#N)cc4)c3)nc2n1 | 208 to 215 °C |
| CCNC(=S)Nc1ccc2ncc(-c3cnn(Cc4cc(C)cc(F)c4)c3)nc2n1 | 257 to 259 °C |
| CCNC(=S)Nc1ccc2ncc(-c3cnn(Cc4cccc(C)c4F)c3)nc2n1 | 242 to 245 °C |
| CCNC(=S)Nc1ccc2ncc(-c3cnn(Cc4cccc(C)c4)c3)nc2n1 | 258 to 261 °C |

Kindly indicate its recorded melting point. Item: CCNC(=S)Nc1ccc2ncc(-c3cnn(Cc4cccc(OCc5ccccc5)c4)c3)nc2n1 203 to 205 °C

Note down melting point recorded for CCNC(=S)Nc1ccc2ncc(-c3cnn(Cc4cccc(OC)c4OC)c3)nc2n1 218 to 222 °C
